B1: Peroxisome proliferator-activated receptor delta, residues 71 to 145; numbered along this chain, Q03181 (parent)
chain: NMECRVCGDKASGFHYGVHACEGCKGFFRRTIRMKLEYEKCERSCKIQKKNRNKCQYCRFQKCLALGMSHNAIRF

variants of: B1; assay: abundance fitness (aPCA) (normalised: wild type 0, dead -1); higher = more abundant; growth selection in yeast, the domain comes from the species named; settings: Homo sapiens
Measured parameter: abundance fitness

- NMECRVCGDKASGFHYGVHACEGCKGGFRRTIRMKLEYEKCERSCKIQKKNRNKCQYCRFQKCLALGMSHNAIRF [F27G]: -0.789
- NMECRVCGDKASGFHYGVHACEGCKGFFRRTIRMKLEYEKCERSCKIQKKNRNKCQYCRFQKCLALGMSHNANRF [I73N]: 0.039
- NMECRVCGDKASGFHYGVHACEGCKGFFRRMIRMKLEYEKCERSCKIQKKNRNKCQYCRFQKCLALGMSHNAIRF [T31M]: -0.521
- NMECRVCGDKASGFHYGVHACEGCKGFFRRTIRMKLKYEKCERSCKIQKKNRNKCQYCRFQKCLALGMSHNAIRF [E37K]: -0.038
- NMECRVCGDKASGFHYGVHACEGCKGFFRRTIRMKLEYEKCERSCKIQKKNRNKCQYERFQKCLALGMSHNAIRF [C58E]: -0.925
- NMECRVCGDKASGFHYGVHACEGCKGFFRSTIRMKLEYEKCERSCKIQKKNRNKCQYCRFQKCLALGMSHNAIRF [R30S]: -0.088
- YMECRVCGDKASGFHYGVHACEGCKGFFRRTIRMKLEYEKCERSCKIQKKNRNKCQYCRFQKCLALGMSHNAIRF [N1Y]: -0.266
- NMECRVCGDKASGFHYGVHACEGCKGFFRRTIRMKLEYEKCERSCKIQKKNRNKCQYCRFQKCLALGMSHNARRF [I73R]: -0.117
- NMECRVCGDKASGFHYGVHACEGCKGFFRRTIRMKLEYEKCERSCKIQKKNTNKCQYCRFQKCLALGMSHNAIRF [R52T]: -0.012
- NMECRVCGDKASGFHYGVHACEGCKGFFRRTIRMKLEYEKCERSCKIQKKNRNKCQYCRFQKCLALGMNHNAIRF [S69N]: -0.118
- NYECRVCGDKASGFHYGVHACEGCKGFFRRTIRMKLEYEKCERSCKIQKKNRNKCQYCRFQKCLALGMSHNAIRF [M2Y]: -0.113
- NMECRVCGDKASGFHYGVHACEGCKGFFRRTIRMKLEYEKCERSCKIQKKNRNKCQYCRFQKCLALGMSHNAIRT [F75T]: 0.171
- NMECRVCQDKASGFHYGVHACEGCKGFFRRTIRMKLEYEKCERSCKIQKKNRNKCQYCRFQKCLALGMSHNAIRF [G8Q]: -0.253
- NMECRVCGDKASGFHYGVHACEGCKGFFRRTIRMKLEYEKCERSCKIQKKNRNKCQYCRFQKCLALGMSHNAIRW [F75W]: 0.176
- LMECRVCGDKASGFHYGVHACEGCKGFFRRTIRMKLEYEKCERSCKIQKKNRNKCQYCRFQKCLALGMSHNAIRF [N1L]: -0.455
- NMECRVCGDKASGFHYGVHACEGCKGFFRRTIRMKLEYEKCERSCKIQKVNRNKCQYCRFQKCLALGMSHNAIRF [K50V]: -0.129
- NMECRVCGDKASLFHYGVHACEGCKGFFRRTIRMKLEYEKCERSCKIQKKNRNKCQYCRFQKCLALGMSHNAIRF [G13L]: -0.48
- NMECRVCGDKASGFHYGHHACEGCKGFFRRTIRMKLEYEKCERSCKIQKKNRNKCQYCRFQKCLALGMSHNAIRF [V18H]: -0.764
- NMECRVCGDKASGFHYGVHACEGCKGFFRRTIRMKLEYEKCERSCKIQKKNRNKCQYCRMQKCLALGMSHNAIRF [F60M]: -0.073

Value source: the Human Domainome abundance scans (Beltran et al. 2025)
